The measured values listed here are drawn from ChEMBL document CHEMBL2034841.

# targetOfAssay: ATP-dependent translocase ABCB1 (Homo sapiens)
# procedureDetails: Inhibition of MDR1-mediated drug resistance in human multidrug-resistant SKOV3TR cells at 1 uM assessed as potentiation of paclitaxel potency by incubated for 6 days by MTT assay
# Type: cell-based
# runConditions: 144 h
property: inhibition (INH)

>>> recordedvalue("COc1ccc(-c2cc([C@H](O)[C@@H]3CCCCN3)c3ccccc3n2)cc1.Cl")
"Active"
>>> recordedvalue("COc1ccc(-c2cc([C@@H](O)[C@H]3CCCCN3)c3ccccc3n2)cc1.Cl")
"Active"
>>> recordedvalue("COc1ccc(-c2cc([C@H](O)[C@H]3CCCCN3)c3ccccc3n2)cc1")
"Active"

====

# targetOfAssay: ATP-dependent translocase ABCB1 (Homo sapiens, UniProt P08183)
# Sequence (P08183 whole entry): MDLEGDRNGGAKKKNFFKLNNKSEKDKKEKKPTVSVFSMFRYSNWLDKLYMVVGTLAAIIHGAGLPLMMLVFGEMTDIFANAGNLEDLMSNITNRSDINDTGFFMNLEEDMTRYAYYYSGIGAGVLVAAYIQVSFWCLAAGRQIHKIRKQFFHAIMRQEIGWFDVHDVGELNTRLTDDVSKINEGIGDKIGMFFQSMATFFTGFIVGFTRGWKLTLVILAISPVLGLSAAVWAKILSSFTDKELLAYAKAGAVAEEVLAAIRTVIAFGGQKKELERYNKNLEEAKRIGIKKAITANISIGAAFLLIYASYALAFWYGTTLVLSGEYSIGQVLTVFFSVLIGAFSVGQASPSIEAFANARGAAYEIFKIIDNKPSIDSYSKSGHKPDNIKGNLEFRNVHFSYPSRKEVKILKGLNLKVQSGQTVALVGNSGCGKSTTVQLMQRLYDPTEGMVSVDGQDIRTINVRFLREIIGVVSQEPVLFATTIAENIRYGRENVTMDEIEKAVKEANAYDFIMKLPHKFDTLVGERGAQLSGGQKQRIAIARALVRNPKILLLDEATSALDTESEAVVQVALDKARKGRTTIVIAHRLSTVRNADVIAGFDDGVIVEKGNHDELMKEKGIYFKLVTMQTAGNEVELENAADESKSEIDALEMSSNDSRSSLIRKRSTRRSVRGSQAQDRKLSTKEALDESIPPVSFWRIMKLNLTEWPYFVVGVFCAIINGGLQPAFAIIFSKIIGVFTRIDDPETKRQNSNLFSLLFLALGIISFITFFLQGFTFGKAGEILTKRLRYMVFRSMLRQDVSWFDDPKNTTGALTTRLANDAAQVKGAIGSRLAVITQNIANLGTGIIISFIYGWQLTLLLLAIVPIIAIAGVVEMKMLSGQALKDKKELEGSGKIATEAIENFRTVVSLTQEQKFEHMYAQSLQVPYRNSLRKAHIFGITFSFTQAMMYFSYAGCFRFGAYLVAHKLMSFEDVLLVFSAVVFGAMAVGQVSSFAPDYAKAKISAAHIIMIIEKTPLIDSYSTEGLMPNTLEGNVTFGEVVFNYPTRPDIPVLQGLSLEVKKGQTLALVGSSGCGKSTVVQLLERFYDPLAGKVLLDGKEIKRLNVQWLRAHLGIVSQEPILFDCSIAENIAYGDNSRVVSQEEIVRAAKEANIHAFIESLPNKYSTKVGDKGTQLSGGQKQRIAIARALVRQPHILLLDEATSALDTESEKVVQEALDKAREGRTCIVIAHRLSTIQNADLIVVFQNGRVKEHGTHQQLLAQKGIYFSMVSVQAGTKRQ
# procedureDetails: Inhibition of MDR1-mediated drug resistance in human multidrug-resistant SKOV3TR cells at 0.1 uM assessed as potentiation of paclitaxel potency by incubated for 6 days by MTT assay
# Format: cell-based
# runConditions: 144 h
property: inhibition (INH)

>>> recordedvalue("COc1ccc(-c2cc([C@H](O)[C@@H]3CCCCN3)c3ccccc3n2)cc1.Cl")
"Active"
>>> recordedvalue("COc1ccc(-c2cc([C@@H](O)[C@H]3CCCCN3)c3ccccc3n2)cc1.Cl")
"Active"
>>> recordedvalue("COc1ccc(-c2cc([C@H](O)[C@H]3CCCCN3)c3ccccc3n2)cc1")
"Active"

====

# targetOfAssay: ATP-dependent translocase ABCB1 (Homo sapiens, UniProt P08183)
# procedureDetails: Inhibition of MDR1-mediated drug resistance in human multidrug-resistant SKOV3TR cells at 0.5 uM assessed as potentiation of paclitaxel potency by incubated for 6 days by MTT assay
# Format: cell-based
# runConditions: 144 h
property: inhibition (INH)

>>> recordedvalue("COc1ccc(-c2cc([C@H](O)[C@H]3CCCCN3)c3ccccc3n2)cc1")
"Active"
>>> recordedvalue("COc1ccc(-c2cc([C@H](O)[C@@H]3CCCCN3)c3ccccc3n2)cc1.Cl")
"Active"
>>> recordedvalue("COc1ccc(-c2cc([C@@H](O)[C@H]3CCCCN3)c3ccccc3n2)cc1.Cl")
"Active"

====

# targetOfAssay: ATP-dependent translocase ABCB1 (Homo sapiens, UniProt P08183)
# procedureDetails: Inhibition of MDR1 in human multidrug-resistant MCF7adr cells assessed drug level causing half maximal reversal of calcein AM accumulation deficit by fluorescence microscopy
# runConditions: read-out: INH
property: IC50 (nM)
Give a bare numeral; the unit nM is implied.

IC50 lookup needed for `COc1ccc(-c2cc([C@H](O)[C@H]3CCCCN3)c3ccccc3n2)cc1` , thanks.
100
